EXPERIMENT NOTES: Measurement of fluorescent property of compound (spectrofluorometer)
Type: physicochemical
CONDITION: 5 μM DMSO solution
Procedure: The excitation wavelength and fluorescence wavelength of the compound were measured by a FL4500 spectrofluorometric measuring machine manufactured by Hitachi High-Technologies Corporation.
ENDPOINT LABEL: Fluorescence wavelength λem (nm)
Give the value in nm but do not write nm after it.

Ask | For the compound CC[N+]1=C(/C=c2\s/c(=C/c3ccc4c(c3)C3CCCC3N4c3ccccc3)c(=O)n2CC(=O)O)C(C)(C)c2ccccc21 (stereo not drawn) , what Fluorescence wavelength λem is on record?
Reply | 643

Ask | For the compound CC1(C)C(/C=C/c2ccc3c(c2)C2CCCC2N3c2ccc(C=C(c3ccccc3)c3ccccc3)cc2)=[N+](CCC(=O)O)c2ccccc21 (stereo not drawn) , what Fluorescence wavelength λem is on record?
Reply | 720

Ask | For the compound CCN1c2ccc(/C=C/C3=[N+](C)c4ccc5ccccc5c4C3(C)C)cc2C2CCCC21 (stereo not drawn) , what Fluorescence wavelength λem is on record?
Reply | 626
